// reported Hemolysis (%) at 50 µM per item
Tested on: erythrocyte suspensions of human blood
Test: Hemolytic activity, hemoglobin release
Assay type: cell-based
Conditions: peptide 50 μM (table prints 50 µM); human blood erythrocytes 5% v/v; absorbance 540 nm; percentage compared to melittin; three replicates
Peptide text beside a SMILES is read from it.
Field: numeric (%). Do not append units.

Illustrative cases are given below, each with its answer.
COMPOUND	ASSAY TARGET	Hemolysis (%) at 50 µM
CC(C)C[C@@H]1NC(=O)[C@H](CCCCN)NC(=O)[C@H](CCCCN)NC(=O)[C@H](CCCCN)NC(=O)[C@H](CCC(N)=O)NC(=O)[C@H](CC(C)C)NC(=O)[C@H](CC(C)C)NC(=O)[C@H](CCCCN)NC(=O)[C@H](Cc2c[nH]c3ccccc23)NC(=O)[C@H](CCCCN)NC1=O [BPC062W, c(KKKLKWKLLQ)] (cyclo(KKKLKWKLLQ))	erythrocyte suspensions of human blood	3
CC(C)C[C@@H]1NC(=O)[C@H](CCCCN)NC(=O)[C@H](CCCCN)NC(=O)[C@H](CCC(N)=O)NC(=O)[C@H](CCCCN)NC(=O)[C@H](CC(C)C)NC(=O)[C@H](CC(C)C)NC(=O)[C@H](Cc2c[nH]c3ccccc23)NC(=O)[C@H](CCCCN)NC(=O)[C@H](CCCCN)NC1=O [BPC104W, c(KKLKKWLLKQ)] (cyclo(KKLKKWLLKQ))	erythrocyte suspensions of human blood	2

Query block: Would you kindly share the measured Hemolysis (%) at 50 µM for CC(C)C[C@@H]1NC(=O)[C@H](CCC(N)=O)NC(=O)[C@H](CCCCN)NC(=O)[C@H](CCCCN)NC(=O)[C@H](CCCCN)NC(=O)[C@H](Cc2c[nH]c3ccccc23)NC(=O)[C@H](CCCCN)NC(=O)[C@H](CCCCN)NC(=O)[C@H](CC(C)C)NC(=O)[C@H](CC(C)C)NC1=O [BPC166W, c(LLLKKWKKKQ)] (cyclo(KKKQLLLKKW)) ?
Result block: 1
